Listed compounds paired with reported LD50 at 336 h
- experimentalDetails: Acute toxicity
- Assay type: in vivo
- conditionContext: mouse, in vivo, po

Recorded LD50 at 336 h, per entry:
{"compound": "CC1(C)Oc2ccc(C#N)cc2[C@@H](OC2=NN(Cc3ccccc3Cl)C(=O)C3CC23)[C@@H]1O (relative stereo)", "measurementKind": "LD50 at 336 h", "measured": "> 2000 mg/kg"}
{"compound": "CN1N=C(O[C@@H]2c3cc(C#N)ccc3OC(C)(C)[C@H]2O)C2CC2C1=O (relative stereo)", "measurementKind": "LD50 at 336 h", "measured": "> 2000 mg/kg"}

Read the next record carefully.
query: Recorded LD50 at 336 h of CC1(C)Oc2ccc(C#N)cc2[C@@H](OC2=NN(Cc3ccccc3)C(=O)C3CC23)[C@@H]1O (relative stereo) , please.
result: > 2000 mg/kg

----------
Listed compounds paired with reported Max. increase of Heat Rate
- Test system: spontaneously hypertensive rats
- experimentalDetails: Antihypertensive activity in spontaneously hypertensive rats (oral, tail-cuff)
- Assay type: in vivo, rat
- conditionContext: dose reducing blood pressure by 50 to 60 mmHg
Answer format: numeric, % implied, no suffix.

query: Under spontaneously hypertensive rats: Max. increase of Heat Rate value of CC1(C)Oc2ccc(C#N)cc2[C@@H](OC2=NN(Cc3ccccc3)C(=O)[C@H]3C[C@@H]23)[C@@H]1O [Example 21] ?
result: 19.7

----------
- Test system: spontaneously hypertensive rats
- experimentalDetails: Antihypertensive activity in spontaneously hypertensive rats (oral, tail-cuff)
- Type: in vivo, rat
- conditionContext: dose reducing blood pressure by 50 to 60 mmHg
Listed compounds paired with reported Max. increase of Heat Rate
Note: state the figure and append the unit.

{"compound": "CC1(C)Oc2ccc(C#N)cc2[C@@H](OC2=NN(Cc3ccc(Cl)cc3Cl)C(=O)C3CC23)[C@@H]1O (relative stereo)", "testTarget": "spontaneously hypertensive rats", "measured": "9.2 ± 1.7%"}

query: Under spontaneously hypertensive rats: Max. increase of Heat Rate value of C#CCN1N=C(O[C@@H]2c3cc(C#N)ccc3OC(C)(C)[C@H]2O)C2CC2C1=O (relative stereo) ?
result: 22.2 ± 2.3%

query: Same question for CN1N=C(O[C@@H]2c3cc(C#N)ccc3OC(C)(C)[C@@]2(C)O)C2CC2C1=O (relative stereo) please.
result: 19.2 ± 0.5%

query: Same question for CC1(C)Oc2ccc(C#N)cc2[C@@H](OC2=NN(Cc3c(Cl)cccc3Cl)C(=O)C3CC23)[C@@H]1O (relative stereo) please.
result: 9.6 ± 1.3%

query: Same question for Cn1nc(O[C@@H]2c3cc(C#N)ccc3OC(C)(C)[C@H]2O)ccc1=O [EMD57283, reference compound] please.
result: 41.3 ± 2.8%

query: Same question for CC1(C)Oc2ccc(C#N)cc2[C@@H](OC2=NN(Cc3ccccc3Cl)C(=O)C3CC23)[C@@H]1O (relative stereo) please.
result: 19.4 ± 3.1%

query: Same question for CCCCN1N=C(O[C@@H]2c3cc(C#N)ccc3OC(C)(C)[C@H]2O)C2CC2C1=O (relative stereo) please.
result: 22.3 ± 5.9%

meta.source: patent US5418232A
